- target or system: Tyrosinase (Agaricus bisporus)
- experiment notes: Inhibition of tyrosinase
# maps each entry to its IC50

Here are 4 molecules together with their reported answers.
In [3]: df
Out[3]:
                    structure_string                target_or_system  metric    result
0       Oc1cc(O)cc(CCc2ccc(O)cc2O)c1  Tyrosinase (Agaricus bisporus)    IC50    1.6 µM
1  COc1cc(O)cc(/C=C/c2ccc(OC)cc2O)c1  Tyrosinase (Agaricus bisporus)    IC50  > 100 µM
2   COc1cc(CCc2ccc(OC)cc2OC)cc(OC)c1  Tyrosinase (Agaricus bisporus)    IC50  > 100 µM
3  COc1cc(O)cc(/C=C/c2ccc(O)cc2OC)c1  Tyrosinase (Agaricus bisporus)    IC50  > 100 µM

Query block: Requested read-out: IC50. Entry: COc1cc(O)ccc1/C=C/c1cc(O)cc(O)c1
Result block: > 100 µM
